Source listed as ChEMBL document CHEMBL1142695.

Tgt: GABA-A receptor; alpha-5/beta-3/gamma-2 (Homo sapiens, UniProt P18507+P28472+P31644)
Sequence (P18507 whole entry): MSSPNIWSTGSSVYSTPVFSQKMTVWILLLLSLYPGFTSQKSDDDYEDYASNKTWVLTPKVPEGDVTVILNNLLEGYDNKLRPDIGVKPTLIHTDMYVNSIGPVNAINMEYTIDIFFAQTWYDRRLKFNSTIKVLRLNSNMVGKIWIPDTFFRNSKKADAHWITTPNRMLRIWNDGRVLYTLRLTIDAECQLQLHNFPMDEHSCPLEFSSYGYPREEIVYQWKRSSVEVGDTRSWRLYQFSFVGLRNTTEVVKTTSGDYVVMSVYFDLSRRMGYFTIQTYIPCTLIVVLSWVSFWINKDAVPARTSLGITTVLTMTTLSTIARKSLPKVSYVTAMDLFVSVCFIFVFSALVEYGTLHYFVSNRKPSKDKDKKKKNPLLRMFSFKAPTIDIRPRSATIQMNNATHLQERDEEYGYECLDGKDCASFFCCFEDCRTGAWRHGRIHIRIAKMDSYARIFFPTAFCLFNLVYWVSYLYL
Sequence (P28472 whole entry): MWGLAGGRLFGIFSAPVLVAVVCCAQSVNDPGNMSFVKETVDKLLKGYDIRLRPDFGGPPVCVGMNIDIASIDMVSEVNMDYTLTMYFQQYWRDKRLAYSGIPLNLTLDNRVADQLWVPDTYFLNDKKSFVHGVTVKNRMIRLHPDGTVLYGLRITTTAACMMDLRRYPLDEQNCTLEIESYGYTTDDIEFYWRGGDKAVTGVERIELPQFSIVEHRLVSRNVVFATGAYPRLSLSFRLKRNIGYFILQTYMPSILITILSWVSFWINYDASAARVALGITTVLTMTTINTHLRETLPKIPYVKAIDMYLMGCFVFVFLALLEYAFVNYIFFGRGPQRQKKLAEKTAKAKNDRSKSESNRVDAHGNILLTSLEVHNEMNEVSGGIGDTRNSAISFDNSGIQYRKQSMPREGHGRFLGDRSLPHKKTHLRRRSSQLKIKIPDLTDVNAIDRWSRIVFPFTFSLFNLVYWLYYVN
Sequence (P31644 whole entry): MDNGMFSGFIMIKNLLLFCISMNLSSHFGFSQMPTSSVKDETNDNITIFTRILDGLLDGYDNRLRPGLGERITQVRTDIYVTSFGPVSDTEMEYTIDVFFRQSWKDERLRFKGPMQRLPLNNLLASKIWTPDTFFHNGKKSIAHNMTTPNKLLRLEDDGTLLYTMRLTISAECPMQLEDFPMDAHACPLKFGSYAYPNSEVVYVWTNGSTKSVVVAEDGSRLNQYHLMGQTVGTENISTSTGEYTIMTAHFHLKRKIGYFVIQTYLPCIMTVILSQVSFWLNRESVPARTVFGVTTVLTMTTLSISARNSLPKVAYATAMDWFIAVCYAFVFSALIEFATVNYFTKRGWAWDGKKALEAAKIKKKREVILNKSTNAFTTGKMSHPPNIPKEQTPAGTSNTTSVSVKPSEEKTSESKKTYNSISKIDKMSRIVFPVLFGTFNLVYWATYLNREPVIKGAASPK
Measurement Protocol: Inhibition of [3H]Ro-151788 binding to recombinant human gamma-aminobutyric-acid A receptor alpha-5-beta-3-gamma-2 subtype expressed in L (tk-) cells
pKi: −log10 of the molar value.
Is pKi at least 8? Then criterion met. If not, criterion not met.

>>> print(df.to_string())
                                   molecule              label
0  OCC1CCC(COc2nn3c(-c4ccccc4)nnc3c3c2C2CCC3CC2)CC1 (trans isomer)  criterion not met
1   OCCCOc1nn2c(-c3ccccc3)nnc2c2c1C1CCC2CC1  criterion not met
2  c1ccc(-c2nnc3c4c(c(OCc5nccs5)nn23)C2CCC4CC2)cc1      criterion met
3  c1ccc(COc2nn3c(-c4ccncc4)nnc3c3c2C2CCC3CC2)nc1  criterion not met
4  c1ccc(COc2nn3c(-c4ccco4)nnc3c3c2C2CCC3CC2)nc1      criterion met
5  Cc1ccccc1-c1nnc2c3c(c(OCc4ccccn4)nn12)C1CCC3CC1  criterion not met
6  COC(=O)c1cccnc1COc1nn2c(-c3ccccc3)nnc2c2c1C1CCC2CC1      criterion met
